Reference source: paper PMC6753678

Documented Unified cytotox across a set of compounds
system: HepG2 cells; assay: HepG2 cytotoxicity assay; settings: unified HepG2 value across the three screens
Unit µM implied. Number only.

> print(dat)
                                   compound  system.under.test          measure  unit.annotation  recorded.value
1  CSc1ccc(C=CC(=O)NC(=O)c2ccccc2O)cc1 [TCMDC-123758]        HepG2 cells  Unified cytotox               µM           73.28
2  Cc1cc(C2NC(=O)c3ccccc3N2)c(C)n1-c1ccc2c(c1)OCO2 (stereo not shown) [TCMDC-125051]        HepG2 cells  Unified cytotox               µM            3.47
3  CCN(CC)c1nc(N)c2c(N)nc3c(c2c1C#N)C(=O)CN3Cc1ccccc1 [TCMDC-125024]        HepG2 cells  Unified cytotox               µM          100.00
4  COc1ccc(CCNc2nc(NCc3ccccc3)c3cc(OC)c(OC)cc3n2)cc1OC [TCMDC-132017]        HepG2 cells  Unified cytotox               µM            4.58
5  C=C[C@H]1CN(CCCCCCC)CC[C@H]1CC(=O)Nc1cnnc2ccc(OC)cc12.O=C(O)C(=O)O [TCMDC-139791]        HepG2 cells  Unified cytotox               µM           33.88

(Q) Fill in Unified cytotox for record CC(O)C(C)(CO)NCc1ccc2c3c(cccc13)-c1ccccc1-2.Cl (stereo not shown) [TCMDC-138117]
(A) 4.47
